Listed here are molecules together with their documented pIC50.
test system: CEM cells HIV-1 protection, formazan growth assay; assay: NCI AIDS Antiviral Assay; conditions: measured here: growth of uninfected CEM cells
// field semantics: pIC50 = negative decimal log of concentration (mol/L)

>>> print(df.to_string())
                                   molecule  measurement_label  numeric_result
0  COC1C(=O)CCC2(CO2)C1(O)C1(C)OC1CC=C(C)C (stereo unspecified)              pIC50            5.54

I'd like to know its pIC50. The molecule in question is CC(=O)Nc1ccc(-c2nnc(SCC(=O)Nc3cccc(Cl)c3)o2)cc1 5.12

Can you handle CCCCOC(=O)c1ccc(NC(=O)C(C)N(CC)CC)cc1 (stereo unspecified) next? 4.44

Can you handle Cc1cccc2c(=O)c3c(O)cc4c(c3n(C)c12)C=CC(C)(C)O4 next? 4.83

====

test system: CEM cells HIV-1 protection, formazan growth assay; test: NCI AIDS Antiviral Assay; settings: measured here: growth of uninfected CEM cells
measurement label: IC50 (µM)
Quick reminder: number only, in µM, skip the unit.

Solved cases (2 shown):
                                   compound  numeric_result
0  CC1CC[P+](c2ccccc2)(c2ccccc2)c2c1ccc1ccccc21 (stereo not given)           0.741
1  CC[C@@]1(C[C@H]2C[C@@]3(C(=O)OC)c4[nH]c5ccccc5c4CCN3C2=O)COC2(CCCCC2)O1            35.5

Attention now turns to another entry.
I'd like to know its IC50. The compound in question is O=C1c2ccccc2C2C1C(c1ccccc1)C1(Cc3ccccc3C1=O)C2c1ccccc1 (stereo not given) 38.9

====

system: CEM cells HIV-1 protection, formazan growth assay; test: NCI AIDS Antiviral Assay;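 active = compounds giving half or more protection of infected cells from virus-caused growth loss, again on retest; inactive = the rest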
Where a SMILES comes first, the peptide text is derived from it. The star is where a group is joined. ONb = O=[N+]([O-])c1ccc(CO*)cc1; Cbz = O=C(OCc1ccccc1)*
Tick one outcome: yes (1) (active), no (0) (inactive)

Worked examples follow.
molecule	class name
COC(=O)C1(CCCCl)CCCN1C(=O)OC(C)(C)C (stereo unspecified)	no (0)
Cc1c2c(n(CCc3ccccc3)c1C)N(C)N=C(C#N)S2(=O)=O	no (0)
O=c1c(SCc2ccccc2)c(N2CCOCC2)cnn1-c1ccccc1	no (0)
COC(=O)C1=C2Nc3ccccc3[C@@]23CCN(Cc2ccccc2)C3CC1[C@@H]1COC(C)(C)O1 (stereo partly specified)	no (0)
C#CCC(C#C)N(CCc1ccsc1)Cc1ccccc1 (stereo unspecified)	no (0)
O=C1OC([C@H](O)c2cccnc2)c2ccccc21 (stereo partly specified)	no (0)
COc1ccc(-c2nnc3n(Cc4ccccc4)c4ccccc4n3c2=O)cc1	no (0)
CC1(C)OCC2OC(n3cnc4c(N)nc(Cl)nc43)C(OS(C)(=O)=O)C2O1 (stereo unspecified)	no (0)
O=C(NC/C=C/Br)Nc1cnc2ccccc2c1	no (0)
COC(=O)/C(=C\c1ccco1)P(=O)(OC)OC	no (0)

Record lookup: outcome of this test for Cc1cc(=O)[nH]c(NNC(C#N)c2c(O)ccc3ccccc23)n1 (stereo unspecified) ? no (0)

Can you handle O=Cc1[nH]c(=O)[nH]c(=O)c1CO next? no (0)

Can you handle [O-]c1on[n+]2c1c(Nc1ccc(Cl)cc1)nc1ccccc12 next? no (0)

Can you handle Cc1cc2c(O)c(c1)CN(CC(=O)O)Cc1cc(C)cc(c1O)CN(CC(=O)O)Cc1cc(C)cc(c1O)CN(CC(=O)O)C2 next? no (0)

Can you handle CCC1CN2CCC3(c4ccccc4)CC(C(=O)OC)=CC1C23 (stereo unspecified) next? no (0)

Can you handle COC(=O)CC1C2CCC1C(=O)C2 (stereo unspecified) next? no (0)

Can you handle S=c1[nH][nH]c(=S)s1 next? yes (1)

Can you handle CC(C)CC(NC(=O)C(Cc1cnc[nH]1)NC(=O)C(Cc1ccccc1)NC(=O)C1CCCN1C(=O)OCc1ccccc1)C(=O)NC(CC(C)C)C(=O)NC(C(=O)NC(Cc1ccc(O)cc1)C(=O)NC(CO)C(=O)OCc1ccc([N+](=O)[O-])cc1)C(C)C (stereo unspecified) (Cbz-PFHLLVYS-ONb; configuration not given here) next? no (0)

Can you handle CCOC(=O)/N=N\C(=O)OCC next? no (0)

Can you handle COC(=O)/C(C#N)=C(/NCCN)Nc1ccccc1 next? no (0)

====

tested on: CEM cells HIV-1 protection, formazan growth assay; experiment: NCI AIDS Antiviral Assay
pEC50: −log10 of the molar value.
measurement label: pEC50

Solved cases (5 shown):
molecule	assayed target	pEC50
COC(=O)/C(=N\N)C(C(=O)C(=O)Nc1nc(=S)[nH][nH]1)c1nc2ccc([N+](=O)[O-])cc2[nH]c1=O (stereo not given)	CEM cells HIV-1 protection, formazan growth assay	< 4.12
N#CC1(C#N)NC(c2cccs2)C(C#N)(C#N)NC1c1cccs1 (stereo not given)	CEM cells HIV-1 protection, formazan growth assay	< 3.70
CCOC(=O)/C(=C/c1cccc2ccccc12)P(=O)(OCC)OCC	CEM cells HIV-1 protection, formazan growth assay	< 3.59
Cc1nn(C(=O)c2ccccc2O)c2c1C(c1ccc([N+](=O)[O-])cc1)SC(N)=N2 (stereo not given)	CEM cells HIV-1 protection, formazan growth assay	< 5.70
[Cu+2].[O-]/C(=N\N=C/c1cccc(F)c1)c1ccncc1.[O-]/C(=N\N=C\c1cccc(F)c1)c1ccncc1	CEM cells HIV-1 protection, formazan growth assay	< 4.00

I'd like to know its pEC50. The molecule in question is CCN(CC)c1ccc2cc(-n3nnc4ccccc43)c(=O)oc2c1 < 5.09

Can you handle O=C1C=C(Nc2ccc(S(=O)(=O)Nc3ncccn3)cc2)c2ccccc2C1=O next? < 3.35

Can you handle CC(C)CCCC(C)C1CCC2[C@@H]3CCC4C[C@@H](CCC=C(c5cc(Br)c(O)c(C(=O)O)c5)c5cc(Br)c(O)c(C(=O)O)c5)CC[C@]4(C)C3CC[C@]12C (stereo not given in full) next? 4.68

Can you handle NNC(=O)CC(=O)Nc1ccc(Cl)cc1 next? < 3.70

Can you handle N#C/C(=C\c1cccc2ccccc12)c1ccc(Cl)cc1 next? < 3.70

Can you handle c1ccc2c(c1)OCCOCCOc1ccccc1OCCO2 next? < 3.53

Can you handle COC(=O)C1=C2c3ccccc3NC(=O)N2NC1C(=O)OC (stereo not given) next? < 3.26

Can you handle O=C(O)C1=CC(=C(c2ccc(O)c(C(=O)O)c2)c2ccc(O)c(C(=O)O)c2)C=C(Cc2ccc(O)c(C(=O)O)c2)C1=O next? < 2.92

Can you handle CCC1CC[N-]CC1.CCC1CC[N-]CC1.CCC1CC[N-]CC1.CCC1CC[N-]CC1.N#C[S-].N#C[S-].[Mn] next? < 3.70

Can you handle Cn1c2ccccc2n2c3ccccc3c3nnc(N)c-3c12 next? < 3.70

Can you handle OC[C@@H]1C2CCC([C@@H]1CO)C2(Cc1ccccc1)Cc1ccccc1 next? < 4.05

Can you handle CCc1nn(S(=O)(=O)c2ccc(C)cc2)c2c1CS(=O)(=O)CC2 next? < 3.70

Can you handle O=C1c2cccc3cccc(c23)C(=O)N1O next? < 4.00

Can you handle CCOC(O)(NC(=O)C(C(F)(F)F)C(F)(F)F)C(F)(F)F (stereo not given) next? < 3.70

Can you handle CCCC(=O)C1=C(O)C(Cc2c(O)c(C)c(O)c(C(=O)CCC)c2O)=C(O)C(C)(C)C1=O next? < 3.70

====

test system: CEM cells HIV-1 protection, formazan growth assay; assay: NCI AIDS Antiviral Assay
measurement label: EC50

Solved cases (4 shown):
>>> df
                                smiles_code  measurement_label     result
0  S=c1[nH]c(=S)c2sc(=S)n(-c3ccccc3)c2[nH]1               EC50   > 115 µM
1  Cc1nc2c(nc1Cl)nc(Oc1ccc(Cl)cc1)c1ccccc12               EC50  > 28.2 µM
2                    O=C(O)CCNCCCCNCCC(=O)O               EC50   > 813 µM
3                  O=C(CCc1ccccc1)n1cccc1CO               EC50   > 200 µM

I'd like to know its EC50. The compound in question is O[C@@H]1CCC[C@@H]2NC[C@@H](c3ccc4c(c3)OCO4)[C@H]12 > 200 µM

Can you handle c1cncc(-c2ncc3cccnc3n2)c1 next? > 100 µM

The values you see were collected from PubChem BioAssay AID179.
